# experimental_target: human GLP-1 receptor (human, UniProt P43220 24-463)
# assay_remarks: cell-based or functional assay
Bridge positions count the residues as written; N and C are the ends. Square brackets hold non-standard residues; d marks the D form. Ends that are not written are not given here. * marks the point of attachment. Acetyl(2-(4-imidazolyl)) = O=C(Cc1c[nH]cn1)*; Aib = CC(C)(N)C(=O)O
Note to self: values exactly at 1% are class 1. So In vitro activity (%) compared with native peptide, vs GLP-1 at or above 1% is class 1, below is class 0.

binder	class_name
Y[Aib]QGTFTSDYSKCLDEKAAKEFVQWLLDHHPSSGQPPPS (bridge 16-20) [triple agonist of SEQ ID NO: 68]	class 1
HGQGTFTSDCSKYLDEQHAQEFVAWLLAGGPSSGAPPPS [triple agonist of SEQ ID NO: 46]	class 1
H[Aib]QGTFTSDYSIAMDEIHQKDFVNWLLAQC (bridge 16-20; not fully specified) [triple agonist of SEQ ID NO: 55]	class 1
Y[Aib]QGTFTSDYSKCLDEKRAKDFVQWLLDHHPSSGQPPPS (bridge 16-20) [triple agonist of SEQ ID NO: 70]	class 1
[Acetyl(2-(4-imidazolyl))]GEGTFISDLSKYMDEQAVQLFVEWLMAGGPSSGAPPPSHG (not fully specified) [triple agonist of SEQ ID NO: 12]	class 0
